B1: MLL5 (parent)
chain: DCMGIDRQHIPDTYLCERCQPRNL

variants of: B1; experiment: protein stability index of a GFP-peptide fusion (GPS, HEK-293T) (PSI 1-6); higher = more stable; settings: c terminus: a fixed tail appended;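 also: lentivirally expressed fusions sorted by FACS into six bins by GFP to DsRed ratio, PSI derived from sequencing read proportions per bin multiplied by bin number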
REPORTED PROPERTY: protein stability index
Numbers only.

Tell me measured protein stability index for DCMGIDRQHIPDTYYCERCQPRNL [L15Y] please.
2.28

Tell me measured protein stability index for DCMGIDRQHIPHTYLCERCQPRNL [D12H] please.
2.48

Tell me measured protein stability index for YCMGIDRQHIPDTYLCERCQPRNL [D1Y] please.
1.95

Tell me measured protein stability index for DCMGIDRQHPPDTYLCERCQPRNL [I10P] please.
2.97

Tell me measured protein stability index for DCMGIDRQPIPDTYLCERCQPRNL [H9P] please.
2.12

For the 5 variants below, give their protein stability index values.
1. DCMGIDRQHIPDTYLWERCQPRNL [C16W]
2. DCMGIDRQHSPDTYLCERCQPRNL [I10S]
3. DCMGIDRQNIPDTYLCERCQPRNL [H9N]
4. DCMGIDRQHIPDTYTCERCQPRNL [L15T]
5. DCMGIDRQHIPDTYLCEICQPRNL [R18I]

2.9
3.14
2.65
3.73
2.9

For the 6 variants below, give their protein stability index values.
1. DCMGIDRQHIPDTYLCERCQPRSL [N23S]
2. DCMGIDRQHIPDTYLCERCQPRNM [L24M]
3. DCMGIDRQHFPDTYLCERCQPRNL [I10F]
4. DCMGIDRQHIPDTYLCIRCQPRNL [E17I]
5. DCMGIDRQHIPDTYLCERNQPRNL [C19N]
6. DCMGIDRQHIPDQYLCERCQPRNL [T13Q]

1. 3.07
2. 2.69
3. 2.54
4. 1.94
5. 4.06
6. 3.07
